# measured.target: T1, Sortilin hSORTECDBAP (human, UniProt Q99523 78-755)
# T1 sequence: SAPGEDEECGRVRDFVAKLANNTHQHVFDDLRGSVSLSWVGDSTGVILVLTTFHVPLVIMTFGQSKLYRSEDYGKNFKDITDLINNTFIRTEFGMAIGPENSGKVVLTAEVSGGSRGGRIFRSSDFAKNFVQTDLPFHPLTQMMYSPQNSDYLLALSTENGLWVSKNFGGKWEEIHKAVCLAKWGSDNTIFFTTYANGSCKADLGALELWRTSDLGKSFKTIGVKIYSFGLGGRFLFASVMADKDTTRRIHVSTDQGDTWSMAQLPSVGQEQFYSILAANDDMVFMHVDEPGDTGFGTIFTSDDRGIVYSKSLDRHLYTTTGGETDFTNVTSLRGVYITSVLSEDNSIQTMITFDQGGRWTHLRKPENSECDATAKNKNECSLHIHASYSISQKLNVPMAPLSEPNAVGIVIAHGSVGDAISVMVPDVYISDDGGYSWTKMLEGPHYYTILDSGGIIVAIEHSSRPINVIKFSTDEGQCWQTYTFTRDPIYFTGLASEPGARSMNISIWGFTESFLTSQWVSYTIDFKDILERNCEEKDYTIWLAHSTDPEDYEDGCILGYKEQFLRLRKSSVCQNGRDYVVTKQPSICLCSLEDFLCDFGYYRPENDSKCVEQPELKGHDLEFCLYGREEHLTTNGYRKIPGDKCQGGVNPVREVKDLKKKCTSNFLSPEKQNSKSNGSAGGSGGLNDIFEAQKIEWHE
# procedure.summary: BLI (Octet384RED)
parameter.measured: EC50 (ng/mL)
API: value field is a number in ng/mL; no unit string.

Examples with their reported EC50 follow.
# binder, units.text, EC50
data = [
    ("Antibody 6003-056 (antibody, human IgG1, V domains shown) VH: EVQVLESGGGLVQPGGSLRLSCVASGFTFSSYAMHWVRQAPGKGLEWVSAISGRGGSTYYADSVKGRFTISRDNSKNTLYLQMNSLRAEDTAVYYCAIIPSLYWYFDLWGRGTLVTVSS VL: EIVLTQSPATLSLSPGERATLSCRASQSVSSFLAWYQQKPGQAPRLLIYDASNRATGIPARFSGSGSGTDFTLTISSLEPEDFAVYYCQQRSNWPLTFGGGTKVEIK", "ng/mL", 1.26),
    ("Antibody 6003-028 (antibody, human IgG1, V domains shown) VH: EVQLLESGGGLVQPGGSLRLSCAASGFTFSSYAMSWVRQAPGKGLEWVSTISGRGGSTYYADSVKGRFTISRDNSKNTLYLQMNSLRAEDTAVYYCANLYSNYWYFDLWGRGTLVTVSS VL: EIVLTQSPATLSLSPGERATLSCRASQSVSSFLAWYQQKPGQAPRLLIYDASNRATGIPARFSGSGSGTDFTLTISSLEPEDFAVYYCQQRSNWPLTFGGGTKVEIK", "ng/mL", 1.75),
    ("Antibody 6003-083 (antibody, human IgG1, V domains shown) VH: EVQLLESGGGLVQPGGSLRLSCAASGFTFSSYAMSWVRQAPGKGLEWVSTISGRGGSTYYADSVKGRFTISRDNSKNTLYLQMNSLRAEDTAVYYCAIVATMYWYFDLWGRGTLVTVSS VL: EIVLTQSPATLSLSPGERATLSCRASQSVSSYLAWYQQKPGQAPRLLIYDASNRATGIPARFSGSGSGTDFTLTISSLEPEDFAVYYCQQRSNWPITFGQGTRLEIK", "ng/mL", 0.77),
]

Please turn your attention to the following entry.
Ask: What EC50 value was documented for this binder, Antibody 6003-1286 (antibody, human IgG1, V domains shown) VH: EVQLLESGGGLVQPGGSLRLSCAASGFTFSSYAMSWVRQAPGKGLEWVSTISGRGGNTYYADSVKGRFTISRDNSKNTLYLQMNSLRAEDAAVYYCANIYSHYWYFDLWGRGTLVTVSS VL: EIVLTQSPATLSLSPGERATLSCRASQSVNSYLAWYQQKPGQAPRLLIYDASNRATGIPARFSGSGSGTDFTLTISSLEPEDFAVYYCQQRSNWPLTFGGGTKVEIK ?
Result: 1.02
